test.summary: Thermodynamic solubility
Format: physicochemical
settings: 1% sodium lauryl sulfate in water, aqueous with cosolvent or surfactant or cyclodextrin, thermodynamic from solid

>  <molecule>
N#Cc1ccc(C(F)(c2ccc(C#N)cc2)n2cncn2)cc1 [Form A leflutrozole]

>  <solubility thermodynamic [µg/mL]>
470

$$$$

---

test.summary: Pharmacokinetics in rats
Format: in vivo
settings: rat, in vivo, po, 1 mg/kg, 1 mg/kg p.o., Suspension 0.5% HPC

>  <structure>
N#Cc1ccc(C(F)(c2ccc(C#N)cc2)n2cncn2)cc1

>  <Cmax, nM>
1810

$$$$

---

test.summary: Pharmacokinetics in rats
Assay type: in vivo
settings: rat, in vivo, po, 1 mg/kg, 1 mg/kg p.o., Suspension 0.5% HPC, read-out: T1/2 (converted)

>  <compound>
N#Cc1ccc(C(F)(c2ccc(C#N)cc2)n2cncn2)cc1 [leflutrozole]

>  <unit>
h

>  <half-life>
101

$$$$

---

test.summary: Pharmacokinetics in naïve female mice
settings: mouse, in vivo, po, 2.5 mg/kg p.o., NMP-PEG300 10/90

>  <structure>
N#Cc1ccc(C(F)(c2ccc(C#N)cc2)n2cncn2)cc1

>  <half-life [h]>
13

$$$$

---

test.summary: Pharmacokinetics in rats
Assay type: in vivo
settings: rat, in vivo, po, 1 mg/kg, AUC 0-24^1/48^2 h, 1 mg/kg p.o., Suspension 0.5% HPC

>  <structure>
N#Cc1ccc(C(F)(c2ccc(C#N)cc2)n2cncn2)cc1

>  <AUC(0-t)>
163 µM·h

$$$$

---

test.summary: Thermodynamic solubility
Format: physicochemical
settings: propylene glycol, organic solvent or mixture, thermodynamic from solid

>  <molecule>
N#Cc1ccc(C(F)(c2ccc(C#N)cc2)n2cncn2)cc1 [Form A leflutrozole]

>  <solubility thermodynamic>
2270 µg/mL

$$$$

---

test.summary: Pharmacokinetics in rats
Assay type: in vivo
settings: rat, in vivo, po, 1 mg/kg, 1 mg/kg p.o., PEG200-water-solution 40/60

>  <structure>
N#Cc1ccc(C(F)(c2ccc(C#N)cc2)n2cncn2)cc1

>  <Cmax, nM>
1750

$$$$

---

test.summary: Excretion/elimination of 14C-labeled leflutrozole after oral dosing
Format: in vivo
settings: rat, plasma, oral; female rats
measure.name: half-life

>  <compound>
N#Cc1ccc(C(F)(c2ccc(C#N)cc2)n2cncn2)cc1 [leflutrozole]

>  <reported.result>
78 h

$$$$

---

test.summary: Thermodynamic solubility
Assay type: physicochemical
settings: ethanol, organic solvent or mixture, thermodynamic from solid

>  <molecule>
N#Cc1ccc(C(F)(c2ccc(C#N)cc2)n2cncn2)cc1 [Form A leflutrozole]

>  <solubility thermodynamic, mg/mL>
3.84

$$$$

---

test.summary: Pharmacokinetics in rats
Type: in vivo
settings: rat, in vivo, po, 1 mg/kg, 1 mg/kg p.o., PEG200-water-solution 40/60, read-out: T1/2 (converted)
measure.name: half-life (h)

>  <structure>
N#Cc1ccc(C(F)(c2ccc(C#N)cc2)n2cncn2)cc1

>  <measure.name>
half-life

>  <reported.result>
49.7

$$$$

---

Test system: CYP3A4/5
test.summary: CYP inhibition, pooled human liver microsomes, probe substrates
Assay type: in vitro ADME
settings: up to 100 μM

>  <structure>
N#Cc1ccc(C(F)(c2ccc(C#N)cc2)n2cncn2)cc1

>  <assayed.target>
CYP3A4/5

>  <IC50>
> 50 µM

$$$$
